Method Summary: yeast display, Sf9 membrane polyspecificity reagent, FACS + sequencing; frameworks hold sequencing errors
Parameter Measured: polyreactivity (PSR sort gate)

QVQLVESGGGLVQAGGSLRLSCAASGSTSYSYMGWYRQAPGKERELVAAIDESGGSTYYADSVKGRFTISRDNAKNTVYLQMNSLKPEDTAVYYCNRRYGRSYRWGYGYWGQGTQVTVSS	low polyreactivity
QVQLVESGGGLVQAGGSLRLSCAASGLIIDGYAMGWYRQAPGKERELVATITVSGTSTYYADSVKGRFTISRDNAKNTVYLQMNSLKPEDTAVYYCATDRNYGYYFVEYDHDYWGQGTQVTVSS	low polyreactivity

====

Method Summary: yeast display, Sf9 membrane polyspecificity reagent, FACS + sequencing; frameworks hold sequencing errors
Parameter Measured: polyreactivity (PSR sort gate)

QVQLVESGGGLDQAGGSLRLSCAASGSTLGYNAMGWYRQAPGKERVLVAAISRSGGITYYADSVKGRFTISRDTAKNTVYLQMNSLKPEDTAVYYCNAVDRTRYRPGNDYDYWGQGTQVTVSS	high polyreactivity
QVQLVESGGGLVQAGGSLRLSCAASGFNFASNAMGWYRQAPGKERELVAAITKSGGRTYYADSVKGRFTISRDNAMNTVYLQMNSLKPEDTAVYYCAAKVRVVHRPYDHWGQGTQVTVSS	high polyreactivity

====

Method Summary: yeast display, Sf9 membrane polyspecificity reagent, FACS + sequencing; frameworks hold sequencing errors
Parameter Measured: polyreactivity (PSR sort gate)

For orientation, consider the following solved cases.
QVQLVESGGGLVQAGGSLRLSCAASGRTFYGYAMGWYRQAPGKERELVATISGSGASTYYADSVKGRFTISRDNAKNTVYLQMNSLKPEVTAVYYFAARYVTNRHSRYYYWGQGTQVTVSS	high polyreactivity
QVQLVESGGGLVQAGGSLRLSCAASGRTIRLYAMGWYRQAPGQERELVAAITRGGRTNYADSVKGRFTISRDNAKNTVYLQMNSLKPEDTAVYYCAARYVERHTDYYYWGQGTQVTVSS	low polyreactivity
QVQLVESGGGLVQAGGSLRLSCAASGSTFYGYGLGWYRPAPGKERELFAAITGSGDTTYYADSVKGRFTISRDNAKNTVYLQMNSLKPEDTAVYYCNARWHAEYDYWGQGTQVTVSS	low polyreactivity
QVQLVESGGGLVQAGGSRRLSCAASGCILRDNAMGWYRQAPGKEREVVAAISYSGDLTYYADSVKGRFTISRDNAKNTVYLQMNSLIPEDTAVYDCAALYPKVRGYRSDDLWGQGTQVTVSS	high polyreactivity
QVQLVESGGCLVQAGGSLRLSCAASGRTFFGYAMGWYRQAPGKERELVAALTRGGSTNYADSVKGRFTFSRDNAKNTVYLQMNSLKPEDTAVYYCNAERYRSRRYPYRYLYYYWGQGTQVTVSS	high polyreactivity
QVQLVESGGGLVKAGGSLRLSCAASAWYAMGWYRQAPGKEREFVAAITFSGSSTYYADSVKGRFTISRDNAKNTVYLQMNSLKPEVTAVYYCNADWWEWGQGTQVTVSS	low polyreactivity
QVQLVESGGGLVQAGGSLRLSCAASGRIFAAYAMGWYRQAPGKERELVAAITWRGGSTYYADSVKGRFTISRDNAKNTVYLQMNSLKPEDTAVYYCNARVYYYPGYDYWGQGTQVTVSS	low polyreactivity
QVQLVESGGGLVQAGGSLRLRCAASGSTFSRYTMGWYRQAPGKERELVAAISKSGGSTYYADSVKGRFTISRDNAKNTVYLQMNSLKPEDTAVYYCAALVRAGTSLDFDYWGQGTQVTVSS	high polyreactivity
QVQLVESGGGLVQAGGSLRLSCAASGRIFYLYAMGWYRQAPGKERELVAAISVSGARTYYADSVKGRFTISRDNAKNNVYLQMNSLKPEDTAVYYCATVGPYRSRRAGDYWGQGTQVTVSS	high polyreactivity
QVQLVESGGGLVQAGGSLRLSCAASGIIFIGYAMGWYRQAAGKERELVAAITRSGVSTYYADSVKGRFTISRDNAKNTVYLQMNSLKPEDTAVYYCAARYFGEKYSQGFDYWGQGTQVTVSS	low polyreactivity

We now examine a further sequence.
[Q] Reported polyreactivity (PSR sort gate), sequence QVQLVETGGGLVKAGGSLRLSCGASGFIFTYNAMGWYRQAPGKERELVAAISGSGGRTYYADSVKGRFTISRDNAKNTVYLQMNSLKPEDTAVYYWNRDPKSLSYGSRGFGYWGLGTQVTVSS : ____
[A] high polyreactivity

====

Method Summary: yeast display, Sf9 membrane polyspecificity reagent, FACS + sequencing; frameworks hold sequencing errors
Parameter Measured: polyreactivity (PSR sort gate)

QVQLVESGGGLVQAGGSLRLSCAASGSPFSSYVMGWYRQAPGTERELVAAISSIGGSTYSADSVKGRFTISRDNAKNTVFLQLNSLKPEDTAVYYCNALYDVWITLHTYTSSDYWGEGTQVTVSS	low polyreactivity
QVQLLESVGGLDQAGGSLRLSCAASGRTFKVYAMGWYRKATVKERELVAAISFSGGTTYYADSVKGRFTISRDNAKNTVYLQMNSLKQEDTAVSYCAAKRYGEYRARGYYYWGQGTQVTVSS	high polyreactivity
QVQLVESGGGLVQAGGSLRLSCAASGSNFSYYDMGWYRQAPGKERELVAAISWNGGTTYYADSVKGRFTISRDNAKNTVYLQMNSLKPEDTAVYYCAATWDFYWAPYDSWGQGTQVTVSS	low polyreactivity
QVQLVESGGGLVQAGGGLRLSCAASGTFKRNAMGWYRQAPGKERELVATITRTGSTTYADSVKGRFTISRDNAKNTVYLQMNSLKPEDTAVYYCNRVTKEYGLRQYYYWGQGTQVTVSS	low polyreactivity
QVQLVESGGGLVQAGGSLRLSCAASGRTFTRYTMGWYRQAPGKERELVAAISYSGGSTYYADSVKGRFTISRDNAKNTVYLQMNSLKPEDTAVYYCAAASVRWPGYDYWGQGTQVTVSS	high polyreactivity
EVQLVESGGGLVQAGGSLRLSCAASVSTFGSNAMGWYRQAPGKERELVAAITNGGSTNYADSVKGRFTISRDNEKNTVYLQMNSLKPEDTAVYYCNAVQSAYNKFWIALWGGYWGQGTQVTVSS	low polyreactivity
QVQLVESGGGLVQAGGSLRLICAASGYIFVRNAMGWYRQAPGKEREFVATISRRGGTTYYADSVKGRFTISRDNAKNTVYLQMNSLKPEDTAVYYCAARNWPSRGYKYWGQGTQVTVSS	high polyreactivity
QVQLVVSGGGLVQAGGSLRLSCAASGRTFYRYAMGWYRQAPGKEWELVAAISASGGITYYADSVKGRFTISRDNAKNTVYLQMNSLKPEDTAVYYCKAVWRKTEYDYWGQGTQVTVSS	high polyreactivity
QVQLVESGGGLVQAGGSLRLSCAASGLIFPRYGMGWYRQAPGKERELVAAISWSGGSTYYADSVKGRFTISRDNAKNTVYLQMNSLKPEDTAVYYCAVLSNRGVYGSDYWGQGTQVTVSS	high polyreactivity
QVKLVESGGGLVQAGGSLRLSCAASGSTMSVNAMGWYRQAPGKERELVAAIDFDGGDTYYADSVKGRFTISRDNAKNTVYFQMNSLKPEDTAVYYCAADIGGQYDYLADDYWGQGTQVTVSS	low polyreactivity

Kindly consider the entry below.
[Q] Data request, read-out polyreactivity (PSR sort gate), for QVQLVESGGGLVQAGGSLRLSCAASGRIFSEYAMGWYRQAPGKERELVAAISGTGGRTYYADSVKGRFTISRDNAKNTVYLQMNSLKPEDTAVYYCAARTGQGPLYNHWGQGTQVTVSS
[A] high polyreactivity

====

Method Summary: yeast display, Sf9 membrane polyspecificity reagent, FACS + sequencing; frameworks hold sequencing errors
Parameter Measured: polyreactivity (PSR sort gate)

# count of solved cases: 5
QVQLVESGGGLVQAGGSLRLSCAASGFTFYDYVMGWYRQAPGKERELVASISARTGSTYYADSVKGRFTISRDNAKNTVYLQMNSLQPEDTAVYYCAADDGQYYRTEYDYWGQGTQVTVSS	low polyreactivity
QVQLVESGGGLVQAGGSLRLSCAASGRIFGAYAMGWYRQAPGKERELVAAITSRGGNTYYADSVKGRFTISRDNAKNTVYFQMNSLKPEDTAVYYWAARHDKRRQYYVGQSAFDYWGQGTQVTVSS	low polyreactivity
QVQLVESGGGLVQAGGSLRLSCAASGSTLIIYAMGWYRQAPGKERELVATISWSGGNTYYADSVKGRFTISRDNAKYTVYLQMNSLKPEDTAVYYCAARWYYYPLLYDYWGQGTQVTVSS	low polyreactivity
QVQLVESGGGLVKAGGSLRLSCAASGRTFQIYAMGWYRQAPGKESELVAAISRTGASTYYADSVKGRFTISRDKAKNTLFLQLNSLKPEDTAVYYCAANGHCRVYFGGCHWGQGTQVTVSS	high polyreactivity
QVQLVESGGGLVQAGGSLRLSCAASGSIFEVYAMGWYRQAPGKDRELVAAITSSDITYYADSVKGRFTISRDNAKNTVYLQMNSLKPEDRAVFYCNAEPPYRVKRSDYWGQGTQVTVSS	low polyreactivity

[Q] Give its polyreactivity (PSR sort gate) value. Item: QLQLVESGGGLVQAGGSLRLSCAASGLTICRYAMAWYRQAPGKEREFVATISQNGGRTYYADSVKGRFTISRDNAKNTVYLQMNSLKPEDTAVYYCAADDWRWGYDYWGQGTQVTVSS
[A] high polyreactivity

[Q] Please report the recorded polyreactivity (PSR sort gate) for QVQLVESGGGLVQAGGSLRLSCAASGSTFYPYAMGWYRQAPGKERELVAAISSGGSTYYADSVKGRFTISRDNAKNTVYLQMNSLKPQDTAVYYCAADFYYAYYWGQGTQVTVSS .
[A] low polyreactivity

[Q] Find the recorded polyreactivity (PSR sort gate) belonging to QVQLVESGGGLVQAGGSLRLSCAASGNTFNLYAMGWYRQAPGKERELVASMTSGGGTNYADSVKGRFTISRDNAKNTVYLQMNSLKPEDTAFFYCAATDWFSEYYWGQGTQVTVSS and report it.
[A] low polyreactivity

[Q] Quick check: polyreactivity (PSR sort gate) of QVQLVESGGGLVQAGGSLRLSCAAYGFTIRRYAMGWSIQAPGKERELVAAITWSAGSTYYADSVKGRFTISRDNAKYTVYLQMNSLKPEDTAVYYCAARCKRWGADSGYYWGNGTQVTVSS ?
[A] high polyreactivity

[Q] Need polyreactivity (PSR sort gate) of QVQLVESRGGLVQAGGSLRLSCAASGSIFVWNAKGWYRQAPGKERELVAAINVRSASTFYADSVKGRFTISRDIAKNTVYLQMNSLKPEDTAVYYCATSYTKQGFRYYYWGQGTQVTVSS , thanks.
[A] high polyreactivity

[Q] Consider the sequence shown here: QVQLVESGGGLVQAGGSLRLSCAASGSTFKTYTMGWYRQAPGKERELVAGITSGGSTSYADSVKGRFTISRDNAKNTVYLQMNSLKPEDTAVYYCNADAYLVIYFYTVRDYGYDYWGQGTQVTVSS What is its recorded polyreactivity (PSR sort gate)?
[A] low polyreactivity

Origin of measurements: the nanobody polyreactivity screen of Harvey et al. (2022)
